biological target: T1, monovalent hVISTA-ECD with polyhistidine tail (SEQ ID NO: 325) (human, UniProt Q9H7M9 33-193); assay: SPR, mAb captured on Protein A chip, hVISTA injected, PBST pH 6.0, 37 C
T1 construct: also called hVISTA-ECD 6-His tag; human VISTA
T1 sequence (Q9H7M9 other isoform, or with tags, fused parts or gaps limits assumed): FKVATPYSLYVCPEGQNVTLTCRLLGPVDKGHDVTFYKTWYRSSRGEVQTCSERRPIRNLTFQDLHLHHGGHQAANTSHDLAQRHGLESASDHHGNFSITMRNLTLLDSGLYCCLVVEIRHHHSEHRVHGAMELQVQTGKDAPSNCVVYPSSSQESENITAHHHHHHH
// log10 of kon lookup, one value per entry
# values: log10(kon), units M⁻¹ s⁻¹

Worked cases, log10 of kon given:
>>> observed_value("P1-077893 (P1-068748 D57K D100S) (antibody, V domains shown, Reversion mutant of P1-068748 (Kabat names); the antibody was captured on a Protein A chip, so an Fc was present) VH: QVQLVESGGGVVQPGRSLRLSCAASGFTFSHHAMHWVRQAPGKGLEWVAIIWYDGSNKDYADSVKGRFTISRDNSKNTLYLQMNSLRAEDTAVYYCARDSGFYSSYYFDYWGQGTLVTVSS VL: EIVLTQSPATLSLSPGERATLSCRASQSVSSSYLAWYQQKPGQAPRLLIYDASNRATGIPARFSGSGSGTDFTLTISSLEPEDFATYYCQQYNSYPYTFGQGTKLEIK")
6.15
>>> observed_value("P1-077875 (P1-068748 H31S H32Y) (antibody, V domains shown, Reversion mutant of P1-068748 (Kabat names); captured on a Protein A chip) VH: QVQLVESGGGVVQPGRSLRLSCAASGFTFSSYAMHWVRQAPGKGLEWVAIIWYDGSNDDYADSVKGRFTISRDNSKNTLYLQMNSLRAEDTAVYYCARDSGFYDSYYFDYWGQGTLVTVSS VL: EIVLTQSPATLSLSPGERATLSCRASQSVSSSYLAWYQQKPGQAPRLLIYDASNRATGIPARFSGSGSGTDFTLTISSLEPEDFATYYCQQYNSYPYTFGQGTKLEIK")
6.28
>>> observed_value("P1-077887 (P1-068748 H31S D100S) (antibody, V domains shown, Reversion mutant of P1-068748 (Kabat names); captured on a Protein A chip) VH: QVQLVESGGGVVQPGRSLRLSCAASGFTFSSHAMHWVRQAPGKGLEWVAIIWYDGSNDDYADSVKGRFTISRDNSKNTLYLQMNSLRAEDTAVYYCARDSGFYSSYYFDYWGQGTLVTVSS VL: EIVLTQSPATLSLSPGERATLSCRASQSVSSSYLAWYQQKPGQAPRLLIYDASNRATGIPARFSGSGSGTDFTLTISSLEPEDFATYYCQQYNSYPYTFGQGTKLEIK")
6.32

Memo: P1-077881 (P1-068748 D58Y D100S) (antibody, V domains shown, Reversion mutant of P1-068748 (Kabat names); captured on a Protein A chip) VH: QVQLVESGGGVVQPGRSLRLSCAASGFTFSHHAMHWVRQAPGKGLEWVAIIWYDGSNDYYADSVKGRFTISRDNSKNTLYLQMNSLRAEDTAVYYCARDSGFYSSYYFDYWGQGTLVTVSS VL: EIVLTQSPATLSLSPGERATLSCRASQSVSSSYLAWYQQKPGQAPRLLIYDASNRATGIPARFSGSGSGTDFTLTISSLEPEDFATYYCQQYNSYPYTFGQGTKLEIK , reported log10 of kon: 4.79

Memo: P1-077865 (P1-068748 H31S) (antibody, V domains shown, Reversion mutant of P1-068748 (Kabat names); captured on a Protein A chip) VH: QVQLVESGGGVVQPGRSLRLSCAASGFTFSSHAMHWVRQAPGKGLEWVAIIWYDGSNDDYADSVKGRFTISRDNSKNTLYLQMNSLRAEDTAVYYCARDSGFYDSYYFDYWGQGTLVTVSS VL: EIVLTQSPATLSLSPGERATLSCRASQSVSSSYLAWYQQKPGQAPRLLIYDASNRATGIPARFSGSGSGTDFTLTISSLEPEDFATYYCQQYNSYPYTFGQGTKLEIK , reported log10 of kon: 5.73
